This collection of values is drawn from patent US10035819B2.

Assay: Pharmacokinetics in male CD-1 mice (i.v. and p.o.)
Assay type: in vivo
Details: male, mouse, po; CD-1 mice, 10 mg/Kg p.o., plasma
Protocol: The oral bioavailability and serum half lives of PPARδ ligands were compared in mice. The pharmacokinetics of PPARδ ligands delivered orally (10 mg/kg p.o.) and intravenously (3 mg·kg i.v.) were determined by mass spectrometry. In this example, the PK profile of several PPARδ agonists disclosed herein in male CD-1 mice or Wistar rats was determined. Similar methods can be used to analyze other compounds provided herein. (quantity sufficient ie made up to a final volume of 100% with water). […]
property: Cmax (ng/mL)
Give just the number in ng/mL; leave the unit off.

compound | number
O=C(O)CCCCCOc1ccccc1CN(C(=O)c1ccc(-c2ccco2)cc1)C1CC1 | 129

# next molecule below
Asked: Request the reported Cmax associated with Cc1cc(SCc2sc(-c3ccc(C(F)(F)F)cc3)nc2C)ccc1OCC(=O)O
Given back: 3290

###

Target: Human PPARδ LBD (Homo sapiens, UniProt Q03181)
Construct: (PPARδ amino acid 128 to C-terminus); expressed in transfected cells; host or cells: CV-1 cells
Sequence (Q03181 128-441 limits assumed): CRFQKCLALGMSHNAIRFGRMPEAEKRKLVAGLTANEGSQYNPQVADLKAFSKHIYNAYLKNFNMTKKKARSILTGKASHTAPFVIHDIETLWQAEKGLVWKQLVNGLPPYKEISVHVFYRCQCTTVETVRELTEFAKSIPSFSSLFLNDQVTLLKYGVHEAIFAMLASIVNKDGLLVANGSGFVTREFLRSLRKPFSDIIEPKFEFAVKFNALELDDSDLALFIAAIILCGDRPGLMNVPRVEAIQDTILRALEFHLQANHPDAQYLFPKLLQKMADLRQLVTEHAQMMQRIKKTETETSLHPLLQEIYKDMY
Assay: PPARδ activity screen (GAL4-PPARδ LBD luciferase transactivation in CV-1 cells)
Format: cell-based
Conditions: Table 1; CV-1 cells, GAL4-PPARδ LBD luciferase reporter, compound 24 h; read-out: EC50
pEC50: −log10 of the molar value.
# cutoff 7 applies to pEC50; >= gives fulfilled, < gives not fulfilled

compound | discrete-label
O=C(O)CCCCCOc1ccccc1CN(C(=O)c1ccc(-c2ccoc2)cc1)C1CC1 | not fulfilled
O=C(O)CCCCCOc1ccccc1CN(C(=O)c1ccc(-c2cccnc2)cc1)C1CC1 | not fulfilled
O=C(O)CCCCCOc1ccccc1CN(C(=O)c1ccc(-c2ccco2)cc1)C1CCCC1 | fulfilled

# next molecule below
Asked: Textbook exercise: given the entry O=C(O)CCCCCOc1ccccc1CN(C(=O)c1ccc(-c2cn[nH]c2)cc1)C1CCCC1 , state whether its pEC50 is greater than or equal to 7.
Given back: not fulfilled

###

Attribute: EC50
Target: Human PPARδ LBD (Homo sapiens, UniProt Q03181)
Construct: (PPARδ amino acid 128 to C-terminus); expressed in transfected cells; host or cells: CV-1 cells
Assay: PPARδ activity screen (GAL4-PPARδ LBD luciferase transactivation in CV-1 cells)
Format: cell-based
Conditions: EC50 nM, Table 1; CV-1 cells, GAL4-PPARδ LBD luciferase reporter, compound 24 h
Give just the number in nM; leave the unit off.

In the examples that follow, each entry is paired with its recorded EC50.
molecule | study-target | number
O=C(O)CCCCCOc1ccccc1CN(C(=O)c1ccc(-c2cccc(F)c2)cc1)C1CC1 [compound 82] | Human PPARδ LBD (Homo sapiens, UniProt Q03181) | 150
O=C(O)CCCCCOc1ccccc1CN(C(=O)c1ccc(-c2ccc(F)cc2)cc1)C1CC1 [compound 83] | Human PPARδ LBD (Homo sapiens, UniProt Q03181) | 364
CCC(C)N(Cc1ccccc1OCCCCCC(=O)O)C(=O)c1ccc(-c2ccncc2)cc1 (stereo not shown) [compound 35] | Human PPARδ LBD (Homo sapiens, UniProt Q03181) | 6400

Asked: Request the reported EC50 associated with O=C(O)CCCCCOc1ccccc1CN(C(=O)c1ccc(-c2ccccc2C(F)(F)F)cc1)C1CC1 [compound 90]
Given back: 1300
